- SYSTEM TESTED: BMP-12 (Homo sapiens, UniProt Q7Z4P5)
- Sequence (Q7Z4P5 322-450): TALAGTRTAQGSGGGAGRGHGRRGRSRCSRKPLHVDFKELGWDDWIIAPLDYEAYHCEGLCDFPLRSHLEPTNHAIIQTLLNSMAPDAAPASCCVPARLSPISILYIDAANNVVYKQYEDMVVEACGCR
- PROTOCOL DETAILS: Filter-plate binding and elution of BMP-12 on peptide-coupled affinity resins
- TEST SETTINGS: loaded in condition 4: 25 mM MES pH 6.0
No end group written: not given here.
Recorded Yield (BMP-12 recovered from resin) for the following substances

{"SUBSTANCE": "Ac-VAPPGYHAFYSHGEK [Peptide 745]", "SYSTEM TESTED": "BMP-12 (Homo sapiens, UniProt Q7Z4P5)", "UNIT ANNOTATION": "%", "Yield (BMP-12 recovered from resin)": 116}
{"SUBSTANCE": "Ac-ELGWDDWIIAPLDYEAYHSEGLK [Peptide 749]", "SYSTEM TESTED": "BMP-12 (Homo sapiens, UniProt Q7Z4P5)", "UNIT ANNOTATION": "%", "Yield (BMP-12 recovered from resin)": 88}
{"SUBSTANCE": "Ac-LYV**SDVGWNDWIVK (Ac-LYVSDVGWNDWIVK; not fully specified (residue 3); printed as Ac-LYV**SDVGWNDWIVK) [Peptide 746]", "SYSTEM TESTED": "BMP-12 (Homo sapiens, UniProt Q7Z4P5)", "UNIT ANNOTATION": "%", "Yield (BMP-12 recovered from resin)": 87}
{"SUBSTANCE": "Ac-SDVGWNDWIVAPPGYHAFYSHGEK [Peptide 751]", "SYSTEM TESTED": "BMP-12 (Homo sapiens, UniProt Q7Z4P5)", "UNIT ANNOTATION": "%", "Yield (BMP-12 recovered from resin)": 92}
{"SUBSTANCE": "Ac-RDLGWQDWIIAPEGYAAFYSDGEK [Peptide 748]", "SYSTEM TESTED": "BMP-12 (Homo sapiens, UniProt Q7Z4P5)", "UNIT ANNOTATION": "%", "Yield (BMP-12 recovered from resin)": 87}
{"SUBSTANCE": "Ac-SDVGWNDWIVAPPGYHAFYCHGEK [Peptide 750]", "SYSTEM TESTED": "BMP-12 (Homo sapiens, UniProt Q7Z4P5)", "UNIT ANNOTATION": "%", "Yield (BMP-12 recovered from resin)": 85}
{"SUBSTANCE": "Ac-LYVDFSDVGWNDWIVAPPGYHAFYSHGEK [Peptide 747]", "SYSTEM TESTED": "BMP-12 (Homo sapiens, UniProt Q7Z4P5)", "UNIT ANNOTATION": "%", "Yield (BMP-12 recovered from resin)": 88}
